B1: Ankyrin-3, residues 4094 to 4171; numbered along this chain, Q12955 (parent)
chain: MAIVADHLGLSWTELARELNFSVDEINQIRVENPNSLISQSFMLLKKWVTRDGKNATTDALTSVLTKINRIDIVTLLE

variants of: B1; experiment: abundance fitness (aPCA) (normalised: wild type 0, dead -1); higher = more abundant; growth selection in yeast, the domain comes from the species named; details: Homo sapiens
Answer each item with its documented abundance fitness.
One number for each entry.

Observe how each entry below is paired with its result.
>  <Seq Text>
MAIVADHLGLSWTELARELNFSVDEINQIRVENPNSLISQSFMLLSKWVTRDGKNATTDALTSVLTKINRIDIVTLLE [K46S]

>  <abundance fitness>
-0.024

$$$$
>  <Seq Text>
MAIVADHLGLSWTELARELNFSVDEINQIRVENPNSLISQSFMLLKKWVTRDGKNATTDALESVLTKINRIDIVTLLE [T62E]

>  <abundance fitness>
-0.297

$$$$
>  <Seq Text>
MAIVADHLGLSWTELARELNFSVDEINQIRVENPNSLISQSFMLLKKWVTRDGKNATTDALTSVITKINRIDIVTLLE [L65I]

>  <abundance fitness>
-0.847

$$$$
>  <Seq Text>
MAIVADHLGLSWTELARELNFSVDEINQIRVENPNSLISQSFMLLKKWVTRDGKNAWTDALTSVLTKINRIDIVTLLE [T57W]

>  <abundance fitness>
-0.931

$$$$
>  <Seq Text>
MAIVADHLGLSWTELARELNFSVDEINEIRVENPNSLISQSFMLLKKWVTRDGKNATTDALTSVLTKINRIDIVTLLE [Q28E]

>  <abundance fitness>
0.035

$$$$

Return reported abundance fitness values for all items listed beneath this line.
1. MAIVADHSGLSWTELARELNFSVDEINQIRVENPNSLISQSFMLLKKWVTRDGKNATTDALTSVLTKINRIDIVTLLE [L8S]
2. MAIVADRLGLSWTELARELNFSVDEINQIRVENPNSLISQSFMLLKKWVTRDGKNATTDALTSVLTKINRIDIVTLLE [H7R]
3. MAIVADHLGLSWTELARELNFSVDEINQIRVENPNSLISQSFMLLKKWVTRDGKNATTDALTSVLTKINRIPIVTLLE [D72P]
4. MAISADHLGLSWTELARELNFSVDEINQIRVENPNSLISQSFMLLKKWVTRDGKNATTDALTSVLTKINRIDIVTLLE [V4S]
5. MAIVADHLGLSWTELARELNFSVDEINQIRVENPNSLWSQSFMLLKKWVTRDGKNATTDALTSVLTKINRIDIVTLLE [I38W]
6. MAIVADHLGLSWTELARELNFSVEEINQIRVENPNSLISQSFMLLKKWVTRDGKNATTDALTSVLTKINRIDIVTLLE [D24E]
7. MAIVADHLGLSWTELARELNFSVDEKNQIRVENPNSLISQSFMLLKKWVTRDGKNATTDALTSVLTKINRIDIVTLLE [I26K]
8. MAIVADHLGLSSTELARELNFSVDEINQIRVENPNSLISQSFMLLKKWVTRDGKNATTDALTSVLTKINRIDIVTLLE [W12S]

[-0.916, -0.05, -0.396, -0.766, -0.039, 0.053, -0.953, -0.968]
